target: T1, flag-tagged soluble TL3 (amino acids 105-251 of SEQ ID NO:234) (Homo sapiens (Human), UniProt O75888 105-250)
T1 construct: Heterologous flag-tagged control protein, immobilized in the ELISA; also called flagged tagged TL-3; not shown: Flag tag
T1 sequence: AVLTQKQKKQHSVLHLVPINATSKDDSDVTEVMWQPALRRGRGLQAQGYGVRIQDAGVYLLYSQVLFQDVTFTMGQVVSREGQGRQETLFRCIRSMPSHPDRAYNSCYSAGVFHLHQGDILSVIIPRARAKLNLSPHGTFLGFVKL
measurement_notes: phage ELISA on immobilized flag-tagged soluble TL3

{"columns": ["binder", "binding result"],
 "data": [
  ["GMBC683 (scFv) scFv: EVQLVESGGGLVQPGRSLRLSCAASGFTFSSYGMHWVRQAPGKGLEWVAVISYDGSNKYYADSVKGRFTISRDNSKNTLYLQMNSLRAEDTAVYYCAKRAAAGTLDYWGQGTTVTVSSGGGGSGGGGSGGGGSSELTQDPAVSVALGQTVRITCQGDSLRSYYASWYQQKPGQAPVLVIYGKNNRPSGIPDRFSGSSSGNTASLTITGAQAEDEADYYCNSRDSSGNHVVFGGGTKLTVLG", "no binding"],
  ["GMBC629 (scFv) scFv: QVQLVESGGGLVKPGGSLRLSCAGSGFKFSDAWMNWVRQAPGKGLEWVGRIKSKGSGGTIEYAVPVKDRFIISRDDSKDTLYLQMNSLKTEDTALYYCTWDWDFYYGMNVWGQGTLVTVSSGGGGSGGGGSGGGGSSELTQDPAVSVALGQTVRITCQGDSLRSYYTNWFQQKPGQAPLLVVYAKNKRPSGIPDRFSGSSSGNTASLTITGAQAEDEADYYCHSRDSSGNHVLFGGGTKLTVLG", "no binding"],
  ["GMBC684 (scFv) scFv: QVQLVQSGGGLVKPGGSLRLSCAASGFKFSDAWMNWVRQAPGKGLEWVGRIKSKGSGGTIDYAAPVKDRFTISRDDSKNTLYLQMNSLKTEDTALYYCTWDWDFYYGMNVWGQGTPVTVSSGGGGSGGGGSGGGGSQSALTQPASVSGSPGQSITISCTGTSSDVGGYNYVSWYQQHPGKAPKLMIYEGSKRPSGVSNRFSGSKSGNTASLTISGLQAEDEADYYCSSYTTRSTRVFGGGTKLTVLG", "no binding"]
]}

Origin of the recorded values: patent US20050069542A1
